Target: GPATCH11 (UniProt Q8N954)
Sequence (Q8N954 whole entry): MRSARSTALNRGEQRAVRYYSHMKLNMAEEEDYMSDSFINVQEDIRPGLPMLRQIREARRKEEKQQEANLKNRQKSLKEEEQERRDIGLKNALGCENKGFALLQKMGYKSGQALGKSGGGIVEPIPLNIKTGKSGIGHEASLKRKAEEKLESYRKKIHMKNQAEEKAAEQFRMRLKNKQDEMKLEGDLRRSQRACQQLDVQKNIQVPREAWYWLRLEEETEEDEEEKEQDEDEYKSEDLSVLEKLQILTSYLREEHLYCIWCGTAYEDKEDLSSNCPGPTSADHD
Assay: Kd (EC50 corrected by depletion factor)
RESULT TYPE: Kd (nM)

AAUAAA | 32.5

* * *

Biological target: DHX15 (UniProt O43143)
Sequence (O43143 whole entry): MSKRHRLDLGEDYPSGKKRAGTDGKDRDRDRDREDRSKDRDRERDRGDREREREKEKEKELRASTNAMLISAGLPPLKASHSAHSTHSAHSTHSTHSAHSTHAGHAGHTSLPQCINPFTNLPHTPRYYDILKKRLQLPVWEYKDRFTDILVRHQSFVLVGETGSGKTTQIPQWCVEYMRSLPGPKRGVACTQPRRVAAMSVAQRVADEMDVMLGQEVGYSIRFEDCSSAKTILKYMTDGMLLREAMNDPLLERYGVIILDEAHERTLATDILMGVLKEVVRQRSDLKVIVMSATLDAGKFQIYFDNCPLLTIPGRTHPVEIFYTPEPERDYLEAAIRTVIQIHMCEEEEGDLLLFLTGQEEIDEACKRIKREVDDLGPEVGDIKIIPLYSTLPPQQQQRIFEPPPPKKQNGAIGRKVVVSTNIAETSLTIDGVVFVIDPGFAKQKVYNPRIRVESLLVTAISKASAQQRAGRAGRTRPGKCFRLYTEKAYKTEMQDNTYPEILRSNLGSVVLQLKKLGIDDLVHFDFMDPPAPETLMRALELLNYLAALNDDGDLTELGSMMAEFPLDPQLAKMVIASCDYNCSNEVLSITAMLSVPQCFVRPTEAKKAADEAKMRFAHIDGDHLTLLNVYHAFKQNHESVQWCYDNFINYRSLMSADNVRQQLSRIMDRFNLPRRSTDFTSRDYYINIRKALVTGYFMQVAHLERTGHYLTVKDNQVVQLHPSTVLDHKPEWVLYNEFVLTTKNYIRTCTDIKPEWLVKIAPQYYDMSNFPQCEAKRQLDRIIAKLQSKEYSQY
Experiment: EC50 of free RNA motif oligo competing protein binding to immobilised probe
pEC50: −log10 of the molar value.
// reported pEC50 per item
RESULT TYPE: pEC50

AAUAAA | 5.67
CUGUCCU | 6.12
UAUUUAU | 6.24

* * *

Target: LSM2 (UniProt Q9Y333)
Sequence: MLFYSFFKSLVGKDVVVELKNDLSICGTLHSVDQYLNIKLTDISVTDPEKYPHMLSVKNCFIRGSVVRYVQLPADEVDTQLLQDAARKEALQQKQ
Assay: EC50 of free RNA motif oligo competing protein binding to immobilised probe
pEC50: −log10 of the molar value.
// reported pEC50 per item
RESULT TYPE: pEC50

AAUAAA | 6.50
UAUUUAU | 6.11
